tested on: LOX IMVI melanoma; experiment: NCI-60 one-dose screen, 48 h; details: 10 µM unless noted
This is part of a sample that, as a whole, favours compounds with a hit. Of some 83,000 tested, about 20% had one in any assay. The source made the active and inactive calls. How the source made its calls: active means growth percent below 10; inactive means the rest.
Answer with one of the outcomes 1 for active, 0 for inactive

INPUT: Recorded test call requested for COc1ccc(/C=C/c2c(C(=O)/C=C/c3ccccc3)c(C)nc3ccccc23)cc1
OUTPUT: 1

INPUT: Consider next the compound COc1ccc(-c2ccc(-c3ccc(C(=N)N)nc3)s2)cc1Cl in the same way.
OUTPUT: 1

INPUT: Consider next the compound Cc1cccc(N2CCC(=O)NC2=S)c1 in the same way.
OUTPUT: 0

INPUT: Consider next the compound C=C(C)[C@@H]1CC[C@]2(C)[C@H](CC=C3[C@@H]4CC(C)(C)CC[C@]4(CO)CC[C@]32C)[C@@]1(C)CCCN in the same way.
OUTPUT: 1

INPUT: Consider next the compound CCOC(=O)C1=C(C)C(Cl)=N/C1=C\c1[nH]c(Cl)c(C)c1C(=O)OCC in the same way.
OUTPUT: 0

INPUT: Consider next the compound COc1cc(/C=C/C(=O)c2ccc(-n3cc(CN4CCN(c5cc6c(cc5F)c(=O)c(C(=O)O)cn6C5CC5)CC4)nn3)cc2)ccc1O in the same way.
OUTPUT: 0

INPUT: Consider next the compound COC(=O)N1CC(Oc2ccccn2)C2CC1c1ccccc1O2 (stereo not given) in the same way.
OUTPUT: 0

INPUT: Consider next the compound O=C1NC(=O)/C(=C/c2c(-c3ccccc3)nc3sc(COc4ccccc4)nn23)S1 in the same way.
OUTPUT: 0

INPUT: Consider next the compound O=C(NNc1cnccn1)c1nc2cc(F)ccc2n2cccc12 in the same way.
OUTPUT: 1

INPUT: Consider next the compound COc1ccc(/C=C/c2ccc3ccccc3n2)c(OC)c1 in the same way.
OUTPUT: 0

INPUT: Consider next the compound C=CCC(CCCC)(C(=O)OCC)C(=O)OCC in the same way.
OUTPUT: 0

INPUT: Consider next the compound CC1(C)C(N)=Nc2cc(OCCCN3Cc4ccccc4C3)c(OCC3CC3)cc21 in the same way.
OUTPUT: 0

INPUT: Consider next the compound COc1ccc(/C=C2\COc3ccc(O)cc3C2=O)cc1 in the same way.
OUTPUT: 0

INPUT: Consider next the compound NS(=O)(=O)c1ccc(-c2cc(-c3nnc(SCC(=O)Nc4ccc(C(=O)/C=C/c5ccc(Cl)cc5)cc4)n3-c3ccccc3)c3ccccc3n2)cc1 in the same way.
OUTPUT: 0

INPUT: Consider next the compound O=C(NCc1cccc(CNC(=O)Nc2nc3ccccc3[nH]2)c1)Nc1nc2ccccc2[nH]1 in the same way.
OUTPUT: 1

INPUT: Consider next the compound Cc1c2ccncc2c(C)c2c1c1cc(CO)ccc1n2C in the same way.
OUTPUT: 1

INPUT: Consider next the compound CC(C)=CCNc1ncnc2c1ncn2C1OC(CO)C(O)C1O (stereo not given) in the same way.
OUTPUT: 1

INPUT: Consider next the compound CN(C)c1ccc(-c2nc(-c3ccccc3)c(-c3ccccc3)[nH]2)cc1 in the same way.
OUTPUT: 0

INPUT: Consider next the compound COc1ccc(C[n+]2c3ccccc3n3c4ccc(N)cc4ccc32)c(OC)c1OC in the same way.
OUTPUT: 0

INPUT: Consider next the compound CC1=C2[C@@H](CC1)[C@]1(C)O[C@@](c3ccccc3)(C[C@H]1OC(=O)CO)[C@H]2OC(=O)/C=C/c1ccccc1 in the same way.
OUTPUT: 0
